- target: HLA-A*02 (Homo sapiens, UniProt P04439, D140Y/D185E/D98H/E176V/E277Q/G131W/G231S/I119V/I121R/I166T/I218V/N151K/N90K/P208A/P217A/Q86G/Q94H/R138H/R169H)
- methodDescription: MHC binding assay, UV-ligand exchange with beta2m ELISA, HLA-A*02
- measurementContext: peptide exchange yield
metric: MHC class I binding score, Peptide exchange

Q: Identify the reported MHC class I binding score, Peptide exchange for the following entry. 42 (VLSPFILTL; listed as Homo sapiens) [compound 42]
Ans: +++ (50%-75% = +++)

Q: Identify the reported MHC class I binding score, Peptide exchange for the following entry. 88 (ILLNTEDLASL; listed as Homo sapiens) [compound 88]
Ans: +++ (50%-75% = +++)

Q: Identify the reported MHC class I binding score, Peptide exchange for the following entry. 65 (KLDGICWQV; listed as Homo sapiens) [compound 65]
Ans: +++ (50%-75% = +++)

Q: Identify the reported MHC class I binding score, Peptide exchange for the following entry. 67 (GVIETVTSL; listed as Homo sapiens) [compound 67]
Ans: ++ (20%-49% = ++)

Q: Identify the reported MHC class I binding score, Peptide exchange for the following entry. 70 (GLFSQHFNL; listed as Homo sapiens) [compound 70]
Ans: +++ (50%-75% = +++)

Okay, now this substance:
Q: Identify the reported MHC class I binding score, Peptide exchange for the following entry. 52 (ELLSSIFFL; listed as Homo sapiens) [compound 52]
Ans: +++ (50%-75% = +++)
